Entries and their measured change (%) of fluorescence at bottom (B) of microplate follow.
- assayed_target: T1, Anti-hCG antibody(m)
- T1 construct: also called mouse IgG (hCG)
- method_description: labelled peptide on antibody immobilised on microplate; antigen hCG
Ends that are not written are not given here. FAM = carboxyfluorescein (FAM) fluorescent label
measurement_name: change (%) of fluorescence at bottom (B) of microplate

binder	quantitative_result
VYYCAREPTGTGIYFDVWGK (not fully specified (N-terminus), Synthetic 20-mer homologous to the FR3 or FR4 region of the heavy chain; The label differs between experiments; also called H2 switching peptide; fourth peptide compound H2) [H2 peptide]	-88.5
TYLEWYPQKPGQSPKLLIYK (not fully specified (N-terminus), Synthetic 20-mer homologous to the FR2 region of the light chain; The label differs between experiments; also called L1 switching peptide; first peptide compound L1) [L1 peptide]	-61.6
{FAM}-VYYCFQGSHVPFTK (Synthetic 14-mer homologous to the FR3 or FR4 region of the light chain; also called L2 switching peptide; second peptide compound L2) [L2 peptide]	-90.7
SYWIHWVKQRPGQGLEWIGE (not fully specified (N-terminus), Synthetic 20-mer homologous to the FR2 region of the heavy chain; The fluorescent label differs between experiments; also called H1 switching peptide; third peptide compound H1) [H1 peptide]	-65.6

# credit: patent US20250341517A1
